Molecular target: CT-L activity of purified 20S proteasome (Homo sapiens, UniProt P20618+P28074)
Assay: in vitro CT-L activity of purified 20S proteasome
Format: biochemical
Settings: compared to 1
Field: fold loss of CT-L activity. Provide a value for each of the molecules that follow.
Answer with the figure and its unit, nothing else.

fold loss of CT-L activity recorded for this molecule, CC(C)N(Cc1nc(-c2ccccc2)no1)C(=O)COc1ccccc1 [11j] , is 10 fold

fold loss of CT-L activity recorded for this molecule, Cc1ccc(OCC(=O)N(Cc2nc(-c3ccc(C)cc3)no2)CC(C)C)cc1 [12a] , is 3 fold

fold loss of CT-L activity recorded for this molecule, CC(C)N(Cc1nc(-c2ccc(C(F)(F)F)cc2)no1)C(=O)COc1ccccc1 [11l] , is 25 fold

fold loss of CT-L activity recorded for this molecule, CCN(Cc1nc(-c2ccc(C)cc2)no1)C(=O)COc1ccc(C)cc1 [12b] , is 14 fold

Next:
fold loss of CT-L activity recorded for this molecule, Cc1ccc(-c2noc(CN(C(=O)COc3ccccc3)C(C)C)n2)cc1 [11k] , is 13 fold

---

Biological target: CT-L activity of purified 20S proteasome (Homo sapiens, UniProt P20618+P28074)
Assay: in vitro CT-L activity of purified 20S proteasome
Assay type: biochemical
Conditions: compared to 11ad or 11ae
Field: fold loss of CT-L activity. Provide a value for each of the molecules that follow.
Answers are plain numbers, in fold.

Below are worked cases with known answers.
Entry CCCCCCc1ccc(OCC(=O)N(Cc2nc(-c3cccnc3)no2)C(C)C)cc1 [11ag] ; assay system CT-L activity of purified 20S proteasome (Homo sapiens, UniProt P20618+P28074); fold loss of CT-L activity recorded at 13

Entry CCCCCc1ccc(OCC(=O)N(Cc2nc(-c3cccnc3)no2)C(C)C)cc1 [11af] ; assay system CT-L activity of purified 20S proteasome (Homo sapiens, UniProt P20618+P28074); fold loss of CT-L activity recorded at 4

Entry CCCc1ccc(OCC(=O)N(Cc2nc(-c3cnccn3)no2)C(C)C)cc1 [11am] ; assay system CT-L activity of purified 20S proteasome (Homo sapiens, UniProt P20618+P28074); fold loss of CT-L activity recorded at 3

Entry CCCc1ccc(OCC(=O)N(Cc2nc(-c3ncccn3)no2)C(C)C)cc1 [11ao] ; assay system CT-L activity of purified 20S proteasome (Homo sapiens, UniProt P20618+P28074); fold loss of CT-L activity recorded at 40

Entry CCCCc1ccc(OCC(=O)N(Cc2nc(-c3cnccn3)no2)C(C)C)cc1 [11an] ; assay system CT-L activity of purified 20S proteasome (Homo sapiens, UniProt P20618+P28074); fold loss of CT-L activity recorded at 3

Continue with the next molecule.
Entry CC(C)N(Cc1nc(-c2cccnc2)no1)C(=O)COc1ccc(C2CCCCC2)cc1 [11ah] ; assay system CT-L activity of purified 20S proteasome (Homo sapiens, UniProt P20618+P28074); fold loss of CT-L activity recorded at 40

---

Field: fold improved CT-L activity. Provide a value for each of the compounds that follow.
Target: CT-L activity of purified 20S proteasome (Homo sapiens, UniProt P20618+P28074)
Experiment: in vitro CT-L activity of purified 20S proteasome
Format: biochemical
Conditions: compared to the hit 1 (PI-1833)
Give bare numbers, in fold.

fold improved CT-L activity recorded for this compound, CCCCc1ccc(OCC(=O)N(Cc2nc(-c3cccnc3)no2)C(C)C)cc1 [11ae] , is 20

fold improved CT-L activity recorded for this compound, CCCc1ccc(OCC(=O)N(Cc2nc(-c3cccnc3)no2)C(C)C)cc1 [11ad] , is 20

fold improved CT-L activity recorded for this compound, CCc1ccc(OCC(=O)N(Cc2nc(-c3ccccc3)no2)C(C)C)cc1 [11aa] , is 2

fold improved CT-L activity recorded for this compound, CCc1ccc(OCC(=O)N(Cc2nc(-c3cccnc3)no2)C(C)C)cc1 [11ab] , is 6

Next:
fold improved CT-L activity recorded for this compound, Cc1ccc(OCC(=O)N(Cc2nc(-c3cccnc3)no2)C(C)C)cc1 [11x] , is 2.5
